- target or test system: UNC-49B homomer (GABA receptor) (Caenorhabditis elegans)
- Construct: homopentamer; two-electrode voltage clamp
- Sequence (G5ECD3 23-506): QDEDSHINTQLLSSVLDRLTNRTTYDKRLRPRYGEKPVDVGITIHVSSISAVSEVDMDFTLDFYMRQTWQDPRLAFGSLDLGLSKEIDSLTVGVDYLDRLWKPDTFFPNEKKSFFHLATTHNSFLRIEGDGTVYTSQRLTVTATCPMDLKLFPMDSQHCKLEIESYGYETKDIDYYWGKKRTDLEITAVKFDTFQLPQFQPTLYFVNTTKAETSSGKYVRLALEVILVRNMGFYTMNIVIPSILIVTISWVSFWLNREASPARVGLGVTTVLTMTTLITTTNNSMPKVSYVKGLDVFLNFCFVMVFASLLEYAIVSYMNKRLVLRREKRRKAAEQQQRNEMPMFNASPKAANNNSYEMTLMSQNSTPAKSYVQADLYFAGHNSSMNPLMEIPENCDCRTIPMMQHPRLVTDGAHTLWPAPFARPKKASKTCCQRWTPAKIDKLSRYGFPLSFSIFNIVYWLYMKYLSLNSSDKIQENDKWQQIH
- method: Pentobarbital enhancement of UNC-49B homomer (FIG. 14B, allosteric regulation of UNC-49)
recorded endpoint: EC50 (µM)
All answers are understood in µM, so give the number only.

Q: Quick check: EC50 of CCCC(C)C1(CC)C(=O)NC(=O)NC1=O (stereo not shown) ?
Ans: 369
